These data points were gathered from patent US8329675B2.

Each item that follows carries a reported pKi.
- assay.target: human FAAH (Homo sapiens, UniProt O00519)
- Construct: host or cells: COS-7 cells, transient transfection; 13,000 g membrane fraction solubilised in 1% Triton X-100
- Sequence (O00519 whole entry): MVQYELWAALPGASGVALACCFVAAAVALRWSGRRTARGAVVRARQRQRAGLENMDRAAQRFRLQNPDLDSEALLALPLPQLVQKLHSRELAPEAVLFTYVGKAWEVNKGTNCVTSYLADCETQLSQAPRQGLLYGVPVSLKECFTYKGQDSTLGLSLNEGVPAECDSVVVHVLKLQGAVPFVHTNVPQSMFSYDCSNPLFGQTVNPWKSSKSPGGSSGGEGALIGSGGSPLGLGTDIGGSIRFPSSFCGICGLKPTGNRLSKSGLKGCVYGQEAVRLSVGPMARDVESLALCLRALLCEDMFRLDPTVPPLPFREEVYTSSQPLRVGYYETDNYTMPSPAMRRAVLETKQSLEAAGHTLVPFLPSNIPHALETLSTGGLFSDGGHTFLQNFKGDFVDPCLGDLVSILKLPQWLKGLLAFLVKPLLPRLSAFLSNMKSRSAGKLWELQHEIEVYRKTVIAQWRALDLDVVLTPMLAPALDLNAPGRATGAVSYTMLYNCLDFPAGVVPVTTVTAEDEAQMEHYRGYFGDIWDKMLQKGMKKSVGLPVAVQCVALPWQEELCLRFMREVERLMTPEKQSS
- experiment.description: Human FAAH biochemical inhibition assay (AMC arachidonoyl amide fluorescence)
- condition.parameters: Table 1, human FAAH (no asterisk); read-out: Activity (Ki)
pKi: −log10 of the molar value.

>  <compound>
OB(O)c1cc(Br)cc(Br)c1 [Compound I-23]

>  <pKi>
6.00 to 8.00

$$$$
>  <compound>
O=C(c1ccc(B(O)O)cc1)N1CCOCC1 [Compound I-171]

>  <pKi>
6.00 to 8.00

$$$$
>  <compound>
CC(C)Oc1ccc(B(O)O)cc1Cl [Compound I-35]

>  <pKi>
7.00 to 8.00

$$$$
>  <compound>
Cc1cc(Cl)cc(B(O)O)c1 [Compound I-20]

>  <pKi>
6.00 to 8.00

$$$$
>  <compound>
OB(O)c1cccc2ncccc12 [Compound I-113]

>  <pKi>
6.00 to 8.00

$$$$

Ask | For CC1(C)OB(c2ccc(/C=C\c3ccccc3)cc2)OC1(C)C [Compound I-126] , what is its reported pKi?
Reply | < 6.00

Ask | Proceed to OB(O)c1ccc(-c2ccccc2)c(F)c1 [Compound I-194]
Reply | > 8.00

Ask | Proceed to COc1cc(Br)cc(B(O)O)c1 [Compound I-17]
Reply | < 6.00

Ask | Proceed to O=C(NCc1ccco1)c1ccc(B(O)O)cc1 [Compound I-167]
Reply | 7.00 to 8.00

Ask | Proceed to OB(O)c1ccc(Cl)s1 [Compound I-37]
Reply | 6.00 to 8.00

Ask | Proceed to CS(=O)(=O)c1ccc(B(O)O)cc1 [Compound I-84]
Reply | 6.00 to 8.00

Ask | Proceed to OB(O)c1cccc2c1oc1ccccc12 [Compound I-4]
Reply | 6.00 to 8.00

Ask | Proceed to OB(O)c1cccc(F)c1 [Compound I-71]
Reply | < 6.00

Ask | Proceed to OB(O)c1ccc(C(F)(F)F)cc1 [Compound I-86]
Reply | 7.00 to 8.00

Ask | Proceed to Cn1c(B(O)O)cc2c(OCc3ccccc3)cccc21 [Compound I-116]
Reply | < 6.00

Ask | Proceed to CCCCOc1c(F)c(F)c(B(O)O)c(F)c1F [Compound I-53]
Reply | < 6.00

Ask | Proceed to OB(O)C1=CCCCCC1 [Compound I-11]
Reply | < 6.00

Ask | Proceed to OB(O)c1csc2ccccc12 [Compound I-197]
Reply | 7.00 to 8.00

Ask | Proceed to OB(O)c1cccc(Cl)c1 [Compound I-73]
Reply | 6.00 to 8.00

Ask | Proceed to CCOc1ccc(B(O)O)cc1 [Compound I-59]
Reply | 6.00 to 8.00

Ask | Proceed to OB(O)c1cccc2cnccc12 [Compound I-41]
Reply | < 6.00

Ask | Proceed to OB(O)c1cc2ccccc2o1 [Compound I-176]
Reply | < 6.00

Ask | Proceed to OB(O)c1ccc(C2CCCC2)cc1 [Compound I-43]
Reply | > 8.00

Ask | Proceed to CC(C)(C)OC(=O)n1c(B(O)O)cc2ccccc21 [Compound I-133]
Reply | < 6.00

Ask | Proceed to COc1ccc(CN(Cc2ccc(OC)cc2)S(=O)(=O)c2ccc(B(O)O)cc2)cc1 [Compound I-117]
Reply | < 6.00

Ask | Proceed to OB(O)c1cc(I)ccc1F [Compound I-1]
Reply | 6.00 to 8.00

Ask | Proceed to OB(O)c1cccc(-c2ccccc2)c1 [Compound I-186]
Reply | 6.00 to 8.00

Ask | Proceed to CCCOc1ccc(B(O)O)cc1 [Compound I-60]
Reply | 7.00 to 8.00

Ask | Proceed to CCCCOc1ccc(B(O)O)c(C)c1 [Compound I-138]
Reply | 6.00 to 8.00

====

- assay.target: human FAAH (Homo sapiens)
- Construct: host or cells: COS-7 cells, transient transfection; 13,000 g membrane fraction solubilised in 1% Triton X-100
- experiment.description: Human FAAH biochemical inhibition assay (AMC arachidonoyl amide fluorescence)
- condition.parameters: Table 2, human FAAH (no asterisk); read-out: Activity (Ki)
- Description: The resulting solution is added into one dish of 30-40% confluent COS-7 cells in a drop-wise manner. The COS-7 cell dish is subsequently incubated for 48 hours. The cells are then harvested. Harvest procedure: Media was aspirated from the dishes and the cells rinsed with 10 mL PBS. […] Human FAAH assay; Experimental Protocol: A 0.1 mg/mL Human FAAH solution is made up in FAAH reaction buffer, and 24 ul pipetted into a 384 well plate. […] The microtiter plate in read in the envision plate reader.
pKi: −log10 of the molar value.
measured.metric: pKi

Example cases with answers are listed next.
>  <compound>
OB(O)c1ccc(OCCc2cccc(OCCCc3ccccc3)c2)cc1F

>  <measured.metric>
pKi

>  <result>
> 8.00

$$$$
>  <compound>
OB(O)c1ccc(C(O)c2ccccc2)cc1 (stereo not drawn)

>  <measured.metric>
pKi

>  <result>
7.00 to 8.00

$$$$
>  <compound>
OB(O)c1ccc(CN2CCCc3ccccc32)cc1

>  <measured.metric>
pKi

>  <result>
> 8.00

$$$$
>  <compound>
N#Cc1cc(Oc2cccc(F)c2)ccc1B(O)O

>  <measured.metric>
pKi

>  <result>
> 8.00

$$$$
>  <compound>
OB(O)c1ccc(OCCN2CCCCC2)cc1F

>  <measured.metric>
pKi

>  <result>
6.00 to 8.00

$$$$

Ask | For `CN(C)[C@H](COc1ccc(B(O)O)c(F)c1)Cc1ccccc1` , what is its reported pKi?
Reply | < 6.00

Ask | Proceed to `CN(CCc1ccccc1)C(=O)c1ccc(B(O)O)cc1`
Reply | > 8.00

====

- assay.target: human FAAH (Homo sapiens)
- Construct: host or cells: COS-7 cells, transient transfection; 13,000 g membrane fraction solubilised in 1% Triton X-100
- experiment.description: Human FAAH biochemical inhibition assay (AMC arachidonoyl amide fluorescence)
- condition.parameters: Table 2, human FAAH (no asterisk); read-out: Activity (Ki)
measured.metric: Ki

Example cases with answers are listed next.
>  <molecule>
OB(O)c1ccc(Oc2cccc(Oc3ccc(Cl)cc3)c2)cc1

>  <measured.metric>
Ki

>  <result>
< 0.01 µM

$$$$
>  <molecule>
COc1ccc(Oc2ccc(B(O)O)cc2)cc1

>  <measured.metric>
Ki

>  <result>
< 0.01 µM

$$$$
>  <molecule>
OB(O)c1ccc(COCc2ccccc2-c2ccccc2)cc1

>  <measured.metric>
Ki

>  <result>
0.01 to 0.1 µM

$$$$
>  <molecule>
CCOc1ccc(Oc2ccc(B(O)O)cc2)cc1F

>  <measured.metric>
Ki

>  <result>
< 0.01 µM

$$$$

Ask | For OB(O)c1ccc(COCC2CCCCO2)cc1 (centres unmarked) , what is its reported Ki?
Reply | 0.01 to 0.1 µM

====

- assay.target: human FAAH (Homo sapiens, UniProt O00519)
- Construct: host or cells: COS-7 cells, transient transfection; 13,000 g membrane fraction solubilised in 1% Triton X-100
- experiment.description: Human FAAH biochemical inhibition assay (AMC arachidonoyl amide fluorescence)
- condition.parameters: Table 2, human FAAH (no asterisk); read-out: Activity (Ki)
pKi: −log10 of the molar value.
measured.metric: pKi

Example cases with answers are listed next.
>  <compound>
OB(O)c1ccc(-c2nc3ccccc3[nH]2)cc1

>  <pKi>
< 6.00

$$$$
>  <compound>
CCCCOc1cccc(Oc2ccc(B(O)O)cc2)c1

>  <pKi>
> 8.00

$$$$
>  <compound>
C[C@H](NC(=O)c1ccc(B(O)O)cc1)c1ccccc1

>  <pKi>
7.00 to 8.00

$$$$

Ask | For O=C1c2cc(B(O)O)ccc2CC1Cc1ccccc1 (stereo not shown) , what is its reported pKi?
Reply | > 8.00

Ask | Proceed to `O=C(c1ccc(B(O)O)cc1)N(Cc1ccccc1)Cc1ccccc1`
Reply | 6.00 to 8.00

Ask | Proceed to `OB(O)c1ccc(-c2ccccc2F)cc1F`
Reply | > 8.00

Ask | Proceed to `COc1ccc(Oc2cc(Oc3ccc(B(O)O)cc3)cc(N(C)C)c2)cc1`
Reply | 7.00 to 8.00

Ask | Proceed to `CN(C)c1cc(Oc2ccc(Cl)cc2)cc(Oc2ccc(B(O)O)cc2)c1`
Reply | 6.00 to 8.00

====

- assay.target: human FAAH (Homo sapiens, UniProt O00519)
- Construct: host or cells: COS-7 cells, transient transfection; 13,000 g membrane fraction solubilised in 1% Triton X-100
- experiment.description: Human FAAH biochemical inhibition assay (AMC arachidonoyl amide fluorescence)
- condition.parameters: Table 1, human FAAH (no asterisk); read-out: Activity (Ki)
pKi: −log10 of the molar value.
Each item that follows carries a reported pKi.

>  <input.smiles>
COc1cc(F)cc(B(O)O)c1

>  <measured.metric>
pKi

>  <result>
6.00 to 8.00

$$$$
>  <input.smiles>
OB(O)c1cccc2[nH]ccc12

>  <measured.metric>
pKi

>  <result>
< 6.00

$$$$
>  <input.smiles>
OB(O)c1cccs1

>  <measured.metric>
pKi

>  <result>
< 6.00

$$$$

Ask | Quick check: pKi on human FAAH (Homo sapiens, UniProt O00519), item `COc1cc(B(O)O)cc(C(F)(F)F)c1` ?
Reply | < 6.00

Ask | Proceed to `O=S(=O)(NCC1CCCCC1)c1ccc(B(O)O)cc1`
Reply | 6.00 to 8.00

Ask | Proceed to `OB(O)c1ccc(OC(F)(F)F)cc1`
Reply | 7.00 to 8.00
